Test system: ATP;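 further: ATP exposure 15 min at 22 °C before imaging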
Experimental protocol: switch fluorescence ratio, 500 uM ATP over buffer (Cy3 cluster intensity, sum of 5 cycles each) (fold (ratio)); higher = stronger signal-on switching upon ATP binding; sequences stand for … in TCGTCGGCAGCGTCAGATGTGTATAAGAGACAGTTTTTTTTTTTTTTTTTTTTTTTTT…TC
Particulars: aptamer strand: ATP DNA aptamer (quencher-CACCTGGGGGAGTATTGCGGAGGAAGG + anchor), 100 nM annealed; ATP concentration: 500 uM
Recorded switch fluorescence ratio for the following sequences
API note: the answer field is a bare number with no unit suffix.

Known results for sequences:
> print(dat)
   sequence.input         measured.attribute  experimental.value
1      ATAACTCGGA  switch fluorescence ratio                   1
2      AAGCAGGGGT  switch fluorescence ratio               0.982
3      TTCGAAGTTG  switch fluorescence ratio               0.999

Measured switch fluorescence ratio, AATCTGGGAG : 0.996

Measured switch fluorescence ratio, TCGATCCCGA : 1.02

Measured switch fluorescence ratio, AGACGGCTTG : 1.01

Measured switch fluorescence ratio, ATGCCAAAAG : 1.01

Measured switch fluorescence ratio, TGTACTAGGG : 1

Measured switch fluorescence ratio, GCGATCAGGT : 1.02

Measured switch fluorescence ratio, GGTAGCAAGT : 1.05

Measured switch fluorescence ratio, GGGAGGGCGG : 0.975

Measured switch fluorescence ratio, ATAAATGGGT : 0.994

Measured switch fluorescence ratio, TATTAGTGGC : 0.94

Measured switch fluorescence ratio, TTTTGTTTT : 1.02

Measured switch fluorescence ratio, AGGATGGTTA : 0.968

Measured switch fluorescence ratio, CAAGTTAAAG : 1.01

Measured switch fluorescence ratio, CAAAGAGCTT : 1

Measured switch fluorescence ratio, GCAACGGGAG : 0.988

Measured switch fluorescence ratio, TAGAGCTGTT : 0.969

====

Tested on: ATP;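 further: ATP exposure 15 min at 22 °C before imaging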
Experimental protocol: switch fluorescence ratio, 500 uM ATP over buffer (Cy3 cluster intensity, sum of 5 cycles each) (fold (ratio)); higher = stronger signal-on switching upon ATP binding; sequences stand for … in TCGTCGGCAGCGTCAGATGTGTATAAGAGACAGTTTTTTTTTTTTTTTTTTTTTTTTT…TC
Particulars: aptamer strand: ATP DNA aptamer (quencher-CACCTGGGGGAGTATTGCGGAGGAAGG + anchor), 100 nM annealed; ATP concentration: 500 uM
Recorded switch fluorescence ratio for the following sequences
API note: the answer field is a bare number with no unit suffix.

> print(dat)
   sequence.input         measured.attribute  experimental.value
1      ACCATTGGTG  switch fluorescence ratio                1.12
2      TTGTATCTTT  switch fluorescence ratio                1.03
3      ATTTTAACGT  switch fluorescence ratio                1.01
4      TAAGCATATG  switch fluorescence ratio                1.01
5      TTCTTCACGG  switch fluorescence ratio                1.04
6      GAATTCGGGA  switch fluorescence ratio                   1
7      ACAGGATGTT  switch fluorescence ratio                1.01
8      GATATTAGGA  switch fluorescence ratio                   1

Measured switch fluorescence ratio, AGTTGGGGTT : 1.04

Measured switch fluorescence ratio, GAGGGAGCTT : 1.04

Measured switch fluorescence ratio, GAGGGAATTT : 1.01

Measured switch fluorescence ratio, GAAGTTTGTA : 0.992

Measured switch fluorescence ratio, AAGGTGCTGC : 1.03

Measured switch fluorescence ratio, GTTGGATAAT : 1

Measured switch fluorescence ratio, CCAGGATTAT : 1.03

Measured switch fluorescence ratio, GGAAGGGAAA : 0.981

Measured switch fluorescence ratio, AGCTTTGGGT : 1.01

Measured switch fluorescence ratio, TTGGGTGTGC : 1.02

Measured switch fluorescence ratio, TAGAGAGGCG : 0.998

Measured switch fluorescence ratio, AGTTTGCGGC : 0.94

Measured switch fluorescence ratio, AAGGGTCTCG : 1.03
